- Organism: Rattus norvegicus
- Assay Details: Open TG-GATES - Regimen: Single
- Assay type: toxicity, organism-based, Sprague-Dawley
- Set-up: regimen Single, gender Male, age 6 weeks
- Condition Description: in vivo, po, 0 mg/kg, 3 h, tissue Kidney, route gavage, dose level Control
KIDNEY_L reference
Parameter Measured: KIDNEY_L (g)

> print(dat)
                                    compound  parameter.measured  endpoint.value
 1      CN(C/C=C/C#CC(C)(C)C)Cc1cccc2ccccc12            KIDNEY_L             1.1
 2  CC(=O)[C@@]1(O)CC[C@H]2[C@@H]3C=C(Cl)C4=CC(=O)CC[C@]4(C)[C@H]3CC[C@@]21C            KIDNEY_L               1
 3  CC(S)C(=O)NCC(=O)O (configuration not stated)            KIDNEY_L             0.9
 4                   Nc1ccc(Cc2ccc(N)cc2)cc1            KIDNEY_L             0.9
 5                   O=C(O)c1ccccc1Nc1ccccc1            KIDNEY_L             0.9
 6  CCCCNC(=O)NS(=O)(=O)c1ccc(C)cc1 [TOLBUTAMIDE]            KIDNEY_L             0.9
 7                                       CCO            KIDNEY_L             0.9
 8  C=C[C@H]1C[N@@]2CC[C@H]1C[C@@H]2[C@@H](O)c1ccnc2ccc(OC)cc12            KIDNEY_L             0.9
 9  COc1cc2ncnc(Nc3ccc(F)c(Cl)c3)c2cc1OCCCN1CCOCC1            KIDNEY_L             0.9
10  COc1ccc([C@@H]2Sc3ccccc3N(CCN(C)C)C(=O)[C@@H]2OC(C)=O)cc1            KIDNEY_L             0.9
11                          O=c1ccc2ccccc2o1            KIDNEY_L             0.8
12          CN(C)CCCN1c2ccccc2Sc2ccc(Cl)cc21            KIDNEY_L               1

###

- Species on record: Rattus norvegicus
- Assay Details: Open TG-GATES - Regimen: Single
- Assay type: toxicity, organism-based, Sprague-Dawley
- Parameters: regimen Single, gender Male, age 6 weeks
- Condition Description: in vivo, po, 0 mg/kg, 3 h, tissue Plasma, route gavage, dose level Control
Parameter Measured: TG (mg/dL)

> print(dat)
                                   compound  parameter.measured  output.unit  endpoint.value
1  CCCCNC(=O)NS(=O)(=O)c1ccc(C)cc1 [TOLBUTAMIDE]                  TG        mg/dL            54.6
2    O=C(O)c1ccccc1Nc1ccccc1 [FENAMIC ACID]                  TG        mg/dL            77.6
3  CN(C)CCCN1c2ccccc2Sc2ccc(Cl)cc21 [CHLORPROMAZINE]                  TG        mg/dL            62.6
4                CCN(CC)C(=S)SSC(=S)N(CC)CC                  TG        mg/dL            72.4
5  CN(C/C=C/C#CC(C)(C)C)Cc1cccc2ccccc12 [TERBINAFINE]                  TG        mg/dL            68.4
6                   Nc1ccc(Cc2ccc(N)cc2)cc1                  TG        mg/dL           128.2

###

- Species: Rattus norvegicus
- Assay Details: Open TG-GATES - Regimen: Daily Repeat
- Format: toxicity, organism-based, Sprague-Dawley
- Set-up: regimen Daily Repeat, gender Male, age 6 weeks
- Condition Description: in vivo, po, 300 mg/kg, […], tissue Plasma, route gavage, dose level Middle, time 28 day
gamma-GTP reference
Parameter Measured: gamma-GTP (IU/L)

> print(dat)
                                   compound  endpoint.value
1  CCCCNC(=O)NS(=O)(=O)c1ccc(C)cc1 [TOLBUTAMIDE]               1
2                   O=C(O)c1ccccc1Nc1ccccc1               1
3  CC(=O)[C@@]1(O)CC[C@H]2[C@@H]3C=C(Cl)C4=CC(=O)CC[C@]4(C)[C@H]3CC[C@@]21C             2.4
4    CC(S)C(=O)NCC(=O)O (centres undefined)             1.8

###

- Species: Rattus norvegicus
- Assay Details: Open TG-GATES - Regimen: Single
- Assay type: toxicity, organism-based, Sprague-Dawley
- Design: regimen Single, gender Male, age 6 weeks
- Condition Description: in vivo, po, 0 mg/kg, 6 h, tissue Plasma, route gavage, dose level Control
ALT reference
Parameter Measured: ALT (IU/L)

> print(dat)
                                   compound  parameter.measured  output.unit  endpoint.value
1  CN(C/C=C/C#CC(C)(C)C)Cc1cccc2ccccc12 [TERBINAFINE]                 ALT         IU/L            34.8
2                CCN(CC)C(=S)SSC(=S)N(CC)CC                 ALT         IU/L            38.8
3  CCCCNC(=O)NS(=O)(=O)c1ccc(C)cc1 [TOLBUTAMIDE]                 ALT         IU/L            36.6
4  COc1cc2ncnc(Nc3ccc(F)c(Cl)c3)c2cc1OCCCN1CCOCC1 [GEFITINIB]                 ALT         IU/L            41.2

###

- Species on record: Rattus norvegicus
- Assay Details: Open TG-GATES - Regimen: Single
- Type: toxicity, organism-based, Sprague-Dawley
- Design: regimen Single, gender Male, age 6 weeks
- Condition Description: in vivo, po, 0 mg/kg, 9 h, tissue Plasma, route gavage, dose level Control
Parameter Measured: DBIL (mg/dL)

> print(dat)
                                    compound  endpoint.value
 1  NS(=O)(=O)c1cc(C(=O)O)c(NCc2ccco2)cc1Cl [FUROSEMIDE]            0.01
 2                   Nc1ccc(Cc2ccc(N)cc2)cc1           0.018
 3  CCCCNC(=O)NS(=O)(=O)c1ccc(C)cc1 [TOLBUTAMIDE]               0
 4                CCN(CC)C(=S)SSC(=S)N(CC)CC           0.002
 5                                       CCO           0.038
 6  COc1ccc([C@@H]2Sc3ccccc3N(CCN(C)C)C(=O)[C@@H]2OC(C)=O)cc1            0.01
 7                   O=C(O)c1ccccc1Nc1ccccc1               0
 8  C=C[C@H]1C[N@@]2CC[C@H]1C[C@@H]2[C@@H](O)c1ccnc2ccc(OC)cc12               0
 9                          O=c1ccc2ccccc2o1           0.022
10  COc1cc2ncnc(Nc3ccc(F)c(Cl)c3)c2cc1OCCCN1CCOCC1           0.004

###

Cl reference
- Organism: Rattus norvegicus
- Assay Details: Open TG-GATES - Regimen: Daily Repeat
- Format: toxicity, organism-based, Sprague-Dawley
- Parameters: regimen Daily Repeat, gender Male, age 6 weeks
- Condition Description: in vivo, po, 0 mg/kg, […], tissue Plasma, route gavage, dose level Control, time 28 day
Parameter Measured: Cl (meq/L)

> print(dat)
                                    compound  output.unit  endpoint.value
 1                                       CCO        meq/L             107
 2  COc1ccc([C@@H]2Sc3ccccc3N(CCN(C)C)C(=O)[C@@H]2OC(C)=O)cc1        meq/L             108
 3      CN(C/C=C/C#CC(C)(C)C)Cc1cccc2ccccc12        meq/L           104.4
 4     CCCCC1C(=O)N(c2ccccc2)N(c2ccccc2)C1=O        meq/L           107.6
 5                   O=C(O)c1ccccc1Nc1ccccc1        meq/L           105.2
 6  CCCCNC(=O)NS(=O)(=O)c1ccc(C)cc1 [TOLBUTAMIDE]        meq/L           105.2
 7  CC(=O)[C@@]1(O)CC[C@H]2[C@@H]3C=C(Cl)C4=CC(=O)CC[C@]4(C)[C@H]3CC[C@@]21C        meq/L           103.8
 8   CC(S)C(=O)NCC(=O)O (stereo unspecified)        meq/L           106.8
 9                   Nc1ccc(Cc2ccc(N)cc2)cc1        meq/L           105.2
10  CN(CCOc1ccc(CC2SC(=O)NC2=O)cc1)c1ccccn1.O=C(O)/C=C\C(=O)O (stereo unspecified) [ROSIGLITAZONE MALEATE]        meq/L             105
11                          O=c1ccc2ccccc2o1        meq/L             106
